- Test system: Enterococcus faecalis
- experiment.notes: Minimum inhibitory concentration against Streptococcus faecalis
- Type: functional
Each entry below lists one item and its recorded MIC value.

Examples with their reported MIC follow.
C[C@@H](NC(=O)[C@H](N)CCl)C(=O)O.O=C(O)C(F)(F)F	> 100 µg/mL
N[C@@H](CCl)C(=O)N[C@@H](CCl)C(=O)O.O=C(O)C(F)(F)F	3.12 µg/mL

# input Which MIC reading was recorded for the compound `C#CC[C@H](N)C(=O)N[C@@H](C)C(=O)O.O=C(O)C(F)(F)F` ?
# output > 100 µg/mL

# input Which MIC reading was recorded for the compound `N[C@H](CCl)C(=O)O` ?
# output 50 µg/mL

# input Which MIC reading was recorded for the compound `C#CC[C@@H](NC(=O)[C@H](C)N)C(=O)O.O=C(O)C(F)(F)F` ?
# output > 100 µg/mL

# input Which MIC reading was recorded for the compound C#CCC(N)C(=O)N[C@@H](C)C(=O)O.O=C(O)C(F)(F)F (stereo not given in full) ?
# output > 100 µg/mL

# input Which MIC reading was recorded for the compound C#CCC(NC(=O)[C@H](C)N)C(=O)O.O=C(O)C(F)(F)F (stereo not given in full) ?
# output > 100 µg/mL

# input Which MIC reading was recorded for the compound `C[C@H](N)C(=O)N[C@@H](CCl)C(=O)O.O=C(O)C(F)(F)F` ?
# output > 100 µg/mL

# input Which MIC reading was recorded for the compound `C#CC[C@H](NC(=O)[C@H](C)N)C(=O)O.O=C(O)C(F)(F)F` ?
# output 100 µg/mL

# input Which MIC reading was recorded for the compound `CSCC[C@H](N)C(=O)N[C@@H](CCl)C(=O)O.O=C(O)C(F)(F)F` ?
# output 0.39 µg/mL
